test system: mice (tonic, extensor spasm of the lower limbs); assay: Maximum electroshock (MES), anticonvulsive activity; type: in vivo, CFLP (LATI) mice; conditions: Mus musculus, po, 1 h; 20 mg/kg p.o., one hour after administration; corneal electrode 20 mA, 0.2 sec; absence of tonic extensor spasm = protection
For each entry below, report its responders at 20 mg/kg value.

compound="CCN1C(=O)CON(C(C)=O)C1c1ccccc1 (centres unmarked)" propertyname="responders at 20 mg/kg" observedvalue=0%
compound="CC(=O)N1OCC(=O)N(CO)C1c1ccccc1 (centres unmarked)" propertyname="responders at 20 mg/kg" observedvalue=60%
compound="CC(=O)N1OCC(=O)N(CCl)C1c1ccccc1 (centres unmarked)" propertyname="responders at 20 mg/kg" observedvalue=40%
compound="CC(=O)N1OCC(=O)N(C)C1c1ccccc1 (centres unmarked)" propertyname="responders at 20 mg/kg" observedvalue=40%

In the following, a different compound is considered.
In: # lookup: responders at 20 mg/kg of CCC1(c2ccccc2)NC(=O)N(C)C1=O (centres unmarked) [3-methyl-5-ethyl-5-phenylhydantoine, reference compound]
Out: 10%

----------
Exercise: for every item that follows, state its recorded responders at 20 mg/kg.
system: mice (tonic, extensor spasm of the lower limbs); experiment: Maximum electroshock (MES), anticonvulsive activity; format: in vivo, CFLP (LATI) mice; settings: Mus musculus, po, 1 h; 20 mg/kg p.o., one hour after administration; corneal electrode 20 mA, 0.2 sec; absence of tonic extensor spasm = protection
Answers are plain numbers, in %.

Would you please look over these solved cases?
molecule="CC(=O)OCN1C(=O)CON(C(C)=O)C1c1ccccc1 (centres unmarked)" observedvalue=70
molecule="COc1cc(C(=O)OCN2C(=O)CON(C(C)=O)C2c2ccccc2)cc(OC)c1OC (centres unmarked)" observedvalue=30
molecule="O=C1NC(=O)C(c2ccccc2)(c2ccccc2)N1 [diphenylhydantoine, reference compound]" observedvalue=90
molecule="CCCCCCN1C(=O)CON(C(C)=O)C1c1ccccc1 (centres unmarked)" observedvalue=0

In: What value of measured responders at 20 mg/kg is listed for CC(=O)N1OCC(=O)N(COC(=O)c2ccccc2)C1c1ccccc1 (centres unmarked) ?
Out: 40

----------
test system: mice (muscle coordination); assay: Neurotoxic activity: muscle coordination (RR) on rotating rod; format: in vivo, CFLP (LATI) mice; conditions: 80 mg/kg p.o., one hour after administration; animals falling from rotating rod within 120 seconds, percentage of control animals
Assignment: determine reported RR (muscle incoordination) for the given compounds.
Give bare numbers, in %.

Observe how each entry below is paired with its result.
compound="CCN1C(=O)CON(C(C)=O)C1c1ccccc1 (stereo not shown)" propertyname="RR (muscle incoordination)" observedvalue=20
compound="O=C1NC(=O)C(c2ccccc2)(c2ccccc2)N1 [diphenylhydantoine, reference compound]" propertyname="RR (muscle incoordination)" observedvalue=70
compound="CC(=O)OCN1C(=O)CON(C(C)=O)C1c1ccccc1 (stereo not shown)" propertyname="RR (muscle incoordination)" observedvalue=40
compound="CC(=O)N1OCC(=O)N(C)C1c1ccccc1 (stereo not shown)" propertyname="RR (muscle incoordination)" observedvalue=20
compound="CC(=O)N1OCC(=O)N(CO)C1c1ccccc1 (stereo not shown)" propertyname="RR (muscle incoordination)" observedvalue=20
compound="CC(=O)N1OCC(=O)N(COC(=O)c2ccccc2)C1c1ccccc1 (stereo not shown)" propertyname="RR (muscle incoordination)" observedvalue=40

Hey, can you go through the list below and give me RR (muscle incoordination) for every item?
1. CCC1(c2ccccc2)NC(=O)N(C)C1=O (stereo not shown) [3-methyl-5-ethyl-5-phenylhydantoine, reference compound]
2. CC(=O)N1OCC(=O)N(CCl)C1c1ccccc1 (stereo not shown)
3. CCCCCCN1C(=O)CON(C(C)=O)C1c1ccccc1 (stereo not shown)

Out:
1: 50; 2: 40; 3: 0

In: What is its RR (muscle incoordination) for mice (muscle coordination)? Entry: COc1cc(C(=O)OCN2C(=O)CON(C(C)=O)C2c2ccccc2)cc(OC)c1OC (stereo not shown)
Out: 0
